- Tested on: KeratinoSens (HaCaT ARE-luciferase) cells
- Assay text: AC50 of Nrf2/ARE luciferase induction; higher = less potent
- Condition details: exposure time: 24 h
Measured AC50 of Nrf2/ARE luciferase induction by item
Outcome measure: AC50 of Nrf2/ARE luciferase induction (µM)

[
  {
    "Molecule": "Clc1ccccc1-c1nc(-c2ccncc2)no1 [Pifexole]",
    "Endpoint unit": "µM",
    "Quantitative readout": 11.4
  },
  {
    "Molecule": "O=C(Nc1ncc([N+](=O)[O-])s1)c1cccs1",
    "Endpoint unit": "µM",
    "Quantitative readout": 8.8
  },
  {
    "Molecule": "O=c1ssc(Cl)c1Cl",
    "Endpoint unit": "µM",
    "Quantitative readout": 21.3
  },
  {
    "Molecule": "O=C(CCCCCCC(=O)Nc1ccccc1)NO [Vorinostat (SAHA)]",
    "Endpoint unit": "µM",
    "Quantitative readout": 11.7
  },
  {
    "Molecule": "C/C=C/C=C/C=O",
    "Endpoint unit": "µM",
    "Quantitative readout": 73.7
  },
  {
    "Molecule": "O=C(O)Cn1c(C(=O)Nc2nc(-c3ccccc3Cl)cs2)cc2ccccc21",
    "Endpoint unit": "µM",
    "Quantitative readout": 32.9
  },
  {
    "Molecule": "O=C(OCc1ccccc1)c1ccc(O)cc1",
    "Endpoint unit": "µM",
    "Quantitative readout": 12.1
  },
  {
    "Molecule": "Oc1ccc2ccccc2c1N=Nc1ccccc1",
    "Endpoint unit": "µM",
    "Quantitative readout": 28.2
  },
  {
    "Molecule": "CC(C)CC(C)Nc1ccc(Nc2ccccc2)cc1 (stereo not given)",
    "Endpoint unit": "µM",
    "Quantitative readout": 26.4
  },
  {
    "Molecule": "O=C(Nc1cccc(Cl)c1)OCC#CCCl",
    "Endpoint unit": "µM",
    "Quantitative readout": 35.5
  },
  {
    "Molecule": "Nc1ccc(N)cc1",
    "Endpoint unit": "µM",
    "Quantitative readout": 39.8
  },
  {
    "Molecule": "CCCCOCN(C(=O)CCl)c1c(CC)cccc1CC",
    "Endpoint unit": "µM",
    "Quantitative readout": 70.8
  },
  {
    "Molecule": "Nc1ccc(Cl)cc1N",
    "Endpoint unit": "µM",
    "Quantitative readout": 13.7
  },
  {
    "Molecule": "CCCOC/C(=N\\c1ccc(Cl)cc1C(F)(F)F)n1ccnc1",
    "Endpoint unit": "µM",
    "Quantitative readout": 63.9
  },
  {
    "Molecule": "C[C@]12CC[C@H](O)C[C@H]1CC[C@@H]1[C@@H]2C[C@@H](O)[C@]2(C)[C@@H](C3=CC(=O)OC3)CC[C@]12O",
    "Endpoint unit": "µM",
    "Quantitative readout": 5.7
  }
]

###

- System: KeratinoSens (HaCaT ARE-luciferase) cells
- Assay text: AC50 of Nrf2/ARE luciferase induction; higher = less potent
- Condition details: exposure time: 24 h
Where a name gives a salt, the structure may show the parent alone.
Returns: string. Value is true (1) if measured AC50 of Nrf2/ARE luciferase induction is below 20 µM, and false (0) if it is greater than or equal to it.

[
  {
    "Compound": "Oc1c(I)cc(Cl)c2cccnc12",
    "Cat": "true (1)"
  },
  {
    "Compound": "CCN(CC)CCOc1ccc2c(c1)C(=O)c1cc(OCCN(CC)CC)ccc1-2",
    "Cat": "false (0)"
  },
  {
    "Compound": "C=C1CC[C@H](O)C/C1=C/C=C1\\CCC[C@]2(C)[C@@H]([C@H](C)/C=C/[C@H](C)C(C)C)CC[C@@H]12",
    "Cat": "false (0)"
  },
  {
    "Compound": "CC(C)=CC1C(C(=O)OCc2coc(Cc3ccccc3)c2)C1(C)C (configuration not stated)",
    "Cat": "false (0)"
  },
  {
    "Compound": "C=CCOC(Cn1ccnc1)c1ccc(Cl)cc1Cl (configuration not stated) [Imazalil sulfate]",
    "Cat": "false (0)"
  },
  {
    "Compound": "COc1ccc(C(c2ccc(OC)cc2)C(Cl)(Cl)Cl)cc1",
    "Cat": "false (0)"
  },
  {
    "Compound": "CCOCN(C(=O)CCl)c1c(C)cccc1CC",
    "Cat": "false (0)"
  },
  {
    "Compound": "CN(C)S(=O)(=O)N(SC(F)(Cl)Cl)c1ccccc1",
    "Cat": "true (1)"
  },
  {
    "Compound": "C=CC(=O)OCCCCCCOC(=O)C=C [1,6-Hexanediol diacrylate]",
    "Cat": "false (0)"
  },
  {
    "Compound": "C/C=C1\\C(=O)C[C@H]2[C@@H]3CCC4=CC(=O)CC[C@]4(C)[C@H]3CC[C@]12C",
    "Cat": "false (0)"
  },
  {
    "Compound": "Cn1sccc1=O [2-Methyl-4-isothiazolin-3-one hydrochloride]",
    "Cat": "true (1)"
  },
  {
    "Compound": "O=C1OC(CCN2CCCCC2)OC1(c1ccccc1)c1ccccc1 (configuration not stated) [Pipoxolan hydrochloride]",
    "Cat": "false (0)"
  },
  {
    "Compound": "Nc1ccccc1N",
    "Cat": "false (0)"
  },
  {
    "Compound": "O=C(Oc1ccccc1)c1cccc(C(=O)Oc2ccccc2)c1 [Diphenyl isophthalate]",
    "Cat": "false (0)"
  },
  {
    "Compound": "Cc1c2ccccc2c(C)c2c1ccc1ccccc12",
    "Cat": "false (0)"
  },
  {
    "Compound": "C=C1C[C@@H]2[C@H](CC[C@]3(C)C(=O)CC[C@@H]23)[C@@]2(C)C=CC(=O)C=C12",
    "Cat": "false (0)"
  },
  {
    "Compound": "c1cc(N(CC2CO2)CC2CO2)ccc1Cc1ccc(N(CC2CO2)CC2CO2)cc1 (configuration not stated)",
    "Cat": "true (1)"
  },
  {
    "Compound": "CCCCc1ccc2[nH]c(NC(=O)OC)nc2c1",
    "Cat": "false (0)"
  },
  {
    "Compound": "CN1C[C@H](C(=O)N[C@]2(C)O[C@@]3(O)[C@@H]4CCCN4C(=O)[C@H](Cc4ccccc4)N3C2=O)C=C2c3cccc4[nH]cc(c34)C[C@H]21 [Ergotamine D-tartrate*]",
    "Cat": "false (0)"
  },
  {
    "Compound": "COc1cc(C(C)C)c2c(c1)S(=O)(=O)N(COc1cc(=O)n3cccc(OCCN4CCCCC4)c3n1)C2=O",
    "Cat": "true (1)"
  },
  {
    "Compound": "Cc1cc(C2CC2)nc(Nc2ccccc2)n1",
    "Cat": "false (0)"
  },
  {
    "Compound": "COc1ccc2cc(CCC(C)=O)ccc2c1",
    "Cat": "true (1)"
  },
  {
    "Compound": "O=C(CCl)CCl",
    "Cat": "false (0)"
  },
  {
    "Compound": "Sc1nc2ccccc2s1",
    "Cat": "false (0)"
  },
  {
    "Compound": "CC#Cc1cc(C)nc(Nc2ccccc2)n1",
    "Cat": "false (0)"
  },
  {
    "Compound": "CC(COc1ccc(Oc2ccccc2)cc1)Oc1ccccn1 (configuration not stated)",
    "Cat": "false (0)"
  }
]
